assay comment: mammalian cell viability loss – dry powder, set 2, plate reader, cytotoxicity control for antifungal single agent project, dose response (AID 602394)
condition description: NIH 3T3 fibroblast viability, Alamar Blue fluorescence, 48 h; at 26 µM (top of the series)
Assignment: determine reported activity change, negative = toxicity for the given molecules.
# unit: % | format: bare number

In: What value of measured activity change, negative = toxicity is listed for Cc1ccc(N2C(=O)C3(CCCCC3)NC2=S)cc1 ?
Out: -13

In: Find the recorded activity change, negative = toxicity belonging to CCOC(=O)N1C(=O)C2(CCOCC2)N(c2ccc(C)cc2)C1=S and report it.
Out: 8.99

In: Entry Cc1ccc(N2C(=S)NC(=O)C23CCC3)cc1 has what activity change, negative = toxicity?
Out: 25

In: // returns reported activity change, negative = toxicity for input Cc1ccc(N2CC(=O)NC2=O)cc1
Out: 22.5

In: activity change, negative = toxicity for CCOC(=O)N1C(=O)C2(CCC2)N(c2ccc(C)cc2)C1=S ?
Out: -6.41

In: Which activity change, negative = toxicity value belongs to O=C1NC(=S)N(c2ccccc2)C12CCCCC2 ?
Out: 52.9

In: So what's the measured activity change, negative = toxicity for this one? O=C1NC(=S)N(Cc2ccccc2)C12CCCCC2
Out: 5.77
